# METHOD: Dog PK study #4 (Compound A PO daily 14 days, 1/3/10 mg/kg; toxicokinetics, platelet counts)
# Assay type: in vivo, beagle dogs
# EXPERIMENTAL_CONTEXT: both sexes, beagle, dog, plasma, oral; after daily administration for 14 days, 10 mg/kg, Pooled Mean, 2 h
TEST_READOUT: concentration at 2 h (ng/mL)
Give bare numbers, in ng/mL.

If you can, please state the reported concentration at 2 h value of Cn1cc(-c2ccccc2)c(-c2cn(C)c(=O)c3[nH]c(-c4cnn(C(F)(F)F)c4)cc23)cc1=O . 1580

---

# METHOD: Rat PK study #3 (ABBV-744 IV 1 mg/kg and PO 5 mg/kg)
# Type: in vivo, SD rats
# EXPERIMENTAL_CONTEXT: male, Sprague-Dawley, rat, plasma, iv, 1 mg/kg, SD rats, IV 1 mg/kg, DMSO/PEG-400/Milli-Q water formulation, 8 h, individual animals
TEST_READOUT: concentration at 8 h (µg/mL)
Numbers only, in µg/mL.

If you can, please state the reported concentration at 8 h value of CCNC(=O)c1cc2c(-c3cc(C(C)(C)O)ccc3Oc3c(C)cc(F)cc3C)cn(C)c(=O)c2[nH]1 . 0.0126

---

# METHOD: Dog PK study #3 (Compound A PO once daily 5 days, 5/10/20 mg/kg; PK, body weight, hematology)
# Format: in vivo, beagle dogs
# EXPERIMENTAL_CONTEXT: male, beagle, dog, plasma, po, 5 mg/kg, Day 5, 5 mg/kg dose PO; mean
TEST_READOUT: Tmax (h)
Give bare numbers, in h.

If you can, please state the reported Tmax value of Cn1cc(-c2ccccc2)c(-c2cn(C)c(=O)c3[nH]c(-c4cnn(C(F)(F)F)c4)cc23)cc1=O . 2

---

# METHOD: Rat PK study #3 (ABBV-744 IV 1 mg/kg and PO 5 mg/kg)
# Type: in vivo, SD rats
# EXPERIMENTAL_CONTEXT: male, Sprague-Dawley, rat, plasma, po, 5 mg/kg, SD rats, PO 5 mg/kg, DMSO/PEG-400/Milli-Q water formulation, 2 h, mean of 3 animals
TEST_READOUT: concentration at 2 h (ng/mL)
One number for each entry, in ng/mL.

If you can, please state the reported concentration at 2 h value of CCNC(=O)c1cc2c(-c3cc(C(C)(C)O)ccc3Oc3c(C)cc(F)cc3C)cn(C)c(=O)c2[nH]1 . 89

---

Record form. Attribute: pIC50. Fill in for each entry.
# TARGET_UNDER_TEST: BRD4 BD1 (Homo sapiens, UniProt O60885)
# Construct: HEK293 cells were transfected using NanoLuc-BRD4-BD1 or NanoLuc-BRD4-BD2 fusion vectors
# METHOD: NanoBRET bromodomain assay, NanoLuc-BRD4-BD1 in HEK293 cells
# Assay type: binding
pIC50: −log10 of the molar value.

Please give pIC50, item by item, for the list that follows.
1. Cn1cc(-c2cccc(C3COC3)c2)c(-c2cn(C)c(=O)c3[nH]c(-c4ccc(F)cc4F)cc23)cc1=O
2. Cc1cccc(C)c1Oc1cn(C2CC2)c(=O)cc1-c1cn(C)c(=O)c2[nH]c(-c3cn(C)nc3C)cc12
3. Cn1cc(-c2cccc3c2COC3)c(-c2cn(C)c(=O)c3[nH]c(-c4ccc(F)cc4F)cc23)cc1=O

["< 6.00", "< 6.00", "< 6.00"]

---

# METHOD: Rat PK study #1 (Compound A PO, methylcellulose vs propylene glycol formulation)
# Assay type: in vivo, Lewis rats
# EXPERIMENTAL_CONTEXT: male, Lewis, rat, plasma, po, 10 mg/kg, Lewis rats, PO 10 mg/kg, 1% methylcellulose formulation, 1 h, mean of 3 animals
# Experimental: For the first rat pharmacokinetic study, the pharmacokinetics of Compound A were assessed in male Lewis rats. […] The Compound A solutions were administered to animals orally (PO) and animals were then monitored over a 24 h period. […] The concentration of Compound A in plasma samples was determined by liquid chromatography-mass spectrometry (LC-MS/MS) using a Shimadzu HPLC (DGU-20A5R; LC-30AD; SIL-30AC; Rack changer II; CTO-31A; and CBM-20A) and an AB API 5500 LC/MS/MS instrument. […]
TEST_READOUT: concentration at 1 h (ng/mL)
Numbers only, in ng/mL.

If you can, please state the reported concentration at 1 h value of Cn1cc(-c2ccccc2)c(-c2cn(C)c(=O)c3[nH]c(-c4cnn(C(F)(F)F)c4)cc23)cc1=O [Compound A] . 13.3

---

# METHOD: Dog PK study #3 (Compound A PO once daily 5 days, 5/10/20 mg/kg; PK, body weight, hematology)
# Type: in vivo, beagle dogs
# EXPERIMENTAL_CONTEXT: male, beagle, dog, plasma, po, 5 mg/kg, Day 5, 5 mg/kg dose PO; individual animals
TEST_READOUT: AUC(0-t) (ng·h/mL)
Numbers only, in ng·h/mL.

If you can, please state the reported AUC(0-t) value of Cn1cc(-c2ccccc2)c(-c2cn(C)c(=O)c3[nH]c(-c4cnn(C(F)(F)F)c4)cc23)cc1=O . 17800

---

# METHOD: CIA study: pharmacokinetics / plasma concentration after oral administration
# Type: in vivo, Lewis rats
# EXPERIMENTAL_CONTEXT: Lewis, rat, plasma, po, 3 mg/kg, CIA-induced animals, day 0, 3 mg/kg, average; read-out: Cmax (Mean)
TEST_READOUT: Cmax (ng/mL)
Answers are plain numbers, in ng/mL.

If you can, please state the reported Cmax value of Cn1cc(-c2ccccc2)c(-c2cn(C)c(=O)c3[nH]c(-c4cnn(C(F)(F)F)c4)cc23)cc1=O . 95

---

# METHOD: CIA study: pharmacokinetics / plasma concentration after oral administration
# Format: in vivo, Lewis rats
# EXPERIMENTAL_CONTEXT: Lewis, rat, plasma, po, 3 mg/kg, CIA-induced animals, day 0, 3 mg/kg, individual test subjects; read-out: MRTInf—obs
TEST_READOUT: MRT inf (h)
Give bare numbers, in h.

If you can, please state the reported MRT inf value of Cn1cc(-c2ccccc2)c(-c2cn(C)c(=O)c3[nH]c(-c4cnn(C(F)(F)F)c4)cc23)cc1=O . 14.1

---

# METHOD: CIA study: pharmacokinetics / plasma concentration after oral administration
# Assay type: in vivo, Lewis rats
# EXPERIMENTAL_CONTEXT: Lewis, rat, plasma, po, 3 mg/kg, oral 3 mg/kg, day 21, time 4; read-out: Mean Concentration (average plasma concentration)
TEST_READOUT: concentration at 4 h (ng/mL)
Give bare numbers, in ng/mL.

If you can, please state the reported concentration at 4 h value of Cn1cc(-c2ccccc2)c(-c2cn(C)c(=O)c3[nH]c(-c4cnn(C(F)(F)F)c4)cc23)cc1=O [Compound A] . 45.8

---

# METHOD: Dog PK study #3 (Compound A PO once daily 5 days, 5/10/20 mg/kg; PK, body weight, hematology)
# Assay type: in vivo, beagle dogs
# EXPERIMENTAL_CONTEXT: male, beagle, dog, plasma, po, 10 mg/kg, Day 5, 10 mg/kg dose PO; individual animals; read-out: Cmax
TEST_READOUT: Cmax (µg/mL)
Give bare numbers, in µg/mL.

If you can, please state the reported Cmax value of Cn1cc(-c2ccccc2)c(-c2cn(C)c(=O)c3[nH]c(-c4cnn(C(F)(F)F)c4)cc23)cc1=O . 1.74

---

# METHOD: Dog PK study #4 (Compound A PO daily 14 days, 1/3/10 mg/kg; toxicokinetics, platelet counts)
# Assay type: in vivo, beagle dogs
# EXPERIMENTAL_CONTEXT: beagle, dog, plasma, oral; after daily administration for 14 days, 3 mg/kg, Male, 4 h
TEST_READOUT: concentration at 4 h (ng/mL)
Give bare numbers, in ng/mL.

If you can, please state the reported concentration at 4 h value of Cn1cc(-c2ccccc2)c(-c2cn(C)c(=O)c3[nH]c(-c4cnn(C(F)(F)F)c4)cc23)cc1=O [Compound A] . 245

---

# METHOD: CIA study: pharmacokinetics / plasma concentration after oral administration
# Assay type: in vivo, Lewis rats
# EXPERIMENTAL_CONTEXT: Lewis, rat, plasma, po, 3 mg/kg, CIA-induced animals, day 0, 3 mg/kg, individual test subjects; read-out: Cmax
TEST_READOUT: Cmax (ng/mL)
Give bare numbers, in ng/mL.

If you can, please state the reported Cmax value of Cn1cc(-c2ccccc2)c(-c2cn(C)c(=O)c3[nH]c(-c4cnn(C(F)(F)F)c4)cc23)cc1=O [Compound A] . 123

---

# METHOD: Dog PK study #3 (Compound A PO once daily 5 days, 5/10/20 mg/kg; PK, body weight, hematology)
# Type: in vivo, beagle dogs
# EXPERIMENTAL_CONTEXT: male, beagle, dog, plasma, po, 20 mg/kg, Day 5, 20 mg/kg dose PO; mean; read-out: AUC0-inf
TEST_READOUT: AUC(0-inf) (µg·h/mL)
Answers are plain numbers, in µg·h/mL.

If you can, please state the reported AUC(0-inf) value of Cn1cc(-c2ccccc2)c(-c2cn(C)c(=O)c3[nH]c(-c4cnn(C(F)(F)F)c4)cc23)cc1=O [Compound A] . 1070

Hey, just so you know, these numbers are from patent US20260217701A1.
